Each entry below lists one item and its recorded growth value.
Tested on: 786-0 renal
assayProtocol: NCI-60 one-dose screen, 48 h (100 = growth as untreated, 0 = no growth, -100 = all killed)
statedConditions: 10 µM unless noted
This is part of a sample that, as a whole, favours compounds with a hit. Of some 83,000 tested, about 20% had one in any assay. The source made the active and inactive calls. How the source made its calls: active means growth percent below 10; inactive means the rest.
experimentalEndpoint: growth

compound	experimentalSystem	experimentalEndpoint	value
Cn1cc(-c2cc3nc(-c4c[nH]c5ccccc45)cc(N)n3n2)c2ccccc21	786-0 renal	growth	-90.6% (active)
NS(=O)(=O)c1ccc(N2N=C(c3ccc(NC(=O)Nc4ccccc4)cc3)CC2c2ccc(Br)cc2)cc1 (stereo not given)	786-0 renal	growth	-85.7% (active)
O=C(Nc1ccc(S(=O)(=O)N2CCCCC2)cc1)C(Cl)Cl	786-0 renal	growth	98.9% (inactive)
FC(F)(F)c1cc2c(Cl)ncnc2n1CCC1CCOCC1	786-0 renal	growth	87.7% (inactive)
c1n[nH]cc1-c1nc2ccc3cn[nH]c3c2c2c1CCCC2	786-0 renal	growth	110% (inactive)
Cc1nc(Nc2ccccn2)sc1C1=NNC(c2ccccc2F)C1 (stereo not given)	786-0 renal	growth	57.6% (inactive)
Fc1ccc(N2CC(Cn3c(C(F)(F)F)cc4c(Cl)ncnc43)C2)c(F)c1	786-0 renal	growth	79.2% (inactive)
COc1ccc(-c2cc(-c3cc(C(C)C)c(O)cc3C)nn2-c2ccc(S(N)(=O)=O)cc2)cc1	786-0 renal	growth	25.5% (inactive)
O=C(Cn1c(/C=C/c2ccc([N+](=O)[O-])cc2)nc2ccccc2c1=O)Nc1ccccc1	786-0 renal	growth	47.2% (inactive)
S=C(Nc1ccc(OCc2nc3ccc(Cl)cc3[nH]2)cc1)NC1CCCCC1	786-0 renal	growth	-20.6% (active)

---

Tested on: UACC-62 melanoma
assayProtocol: NCI-60 one-dose screen, 48 h
statedConditions: 10 µM unless noted
The panel holds about 83,000 compounds, 20% with a hit somewhere; the sample as a whole holds those more often. The source made the active and inactive calls. The calls were made as follows: active = growth percent below 10; inactive = the rest.
Labels: active, inactive

compound	category
CN(C)c1nc(NCCNS(=O)(=O)c2ccc(C(=O)/C=C/c3ccccc3)cc2)nc(N2CCOCC2)n1	inactive
COc1ccc(N=Nc2c(N)nn3c(-c4cc5cc(Br)ccc5oc4=O)ccnc23)cc1	inactive
COC(=O)c1c(C(=O)OC)c2ccc3c4ccccc4ccc3n2c1C(=O)C(C)Br (stereo unspecified)	inactive
C/C(=N/O)c1ccc(NC(=O)CSc2nnc(-c3ccc(-c4nc5ccc(Cl)cc5[nH]4)cc3)o2)cc1	active
CN1C(=O)C2(C(C#N)=C(c3ccc(Cl)cc3)Nc3c2c(-c2ccccc2)nn3-c2ccccc2)c2ccccc21 (stereo unspecified)	inactive
O=C(/C=C1\C(=O)N(Cc2ccccc2)c2ccccc21)c1cc2ccccc2oc1=O	inactive
Nc1nn2c(-c3cc4cc(Br)ccc4oc3=O)ccnc2c1N=Nc1ccc(S(N)(=O)=O)cc1	inactive
O=C(c1ccc(O)cc1)C1[C@H](c2ccccc2Br)[C@@H](c2ccccc2)NC12C(=O)Nc1ccccc12 (stereo partly specified)	inactive
COc1ccc(/C=C/C(=O)c2ccc(S(=O)(=O)NCCNc3nc(N(C)C)nc(N4CCOCC4)n3)cc2)cc1	inactive
O=C(Cn1c(-c2ccccc2)nc2ccccc21)N=Nc1c(O)[nH]c2ccc(Cl)cc12	active
O=C(Nc1ccc(Cl)c(C(F)(F)F)c1)N1CCN(c2cc(-c3cn(-c4ccccc4)nc3-c3cccc(O)c3)ccn2)CC1	active
CCC1(OC(=O)c2ccccc2SSCCOC(=O)CCCCC2SCC3NC(=O)NC32)C(=O)OCc2c1cc1n(c2=O)Cc2cc3ccccc3nc2-1 (stereo unspecified)	inactive
Cc1ccc(C(=O)Nc2cc(-c3ccncc3)cc(C(F)(F)F)c2)cc1C#Cc1cnc2cccnn12	inactive
O=C(N/N=C/c1c[nH]c2ccccc12)Nc1ccc(F)c(Cl)c1	inactive
Cc1ccc(Cl)cc1NC(=O)Nc1nc2ccc([N+](=O)[O-])cc2s1	active
COc1cccc2nc(Nc3cccc(NC(=O)c4ccc(CN5CCN(C)CC5)c(C(F)(F)F)c4)c3)ccc12	active
O=C(Nc1ccc(F)cc1)Nc1nc2ccc([N+](=O)[O-])cc2s1	active
O=C1CC(c2ccc(I)cc2)OC2C=Cc3ccccc3C12 (stereo unspecified)	inactive
Oc1ccc(F)c(Nc2nc(SCCN3CCOCC3)nc3c2cnn3CC(Cl)c2ccc(Br)cc2)c1 (stereo unspecified)	inactive
O=C(NNC(=O)c1ccc(OCc2nc3ccc(Cl)cc3[nH]2)cc1)Nc1ccc(Cl)c(Cl)c1	inactive
CC1=C(C(=O)Nc2ccccc2)C(c2cccc3ccccc23)n2c(nc3ccccc32)N1 (stereo unspecified)	inactive
CN1CCN(C(=O)Oc2cc3c(c4ccccc24)[C@H](CCl)CN3C(=O)c2cc3cc(OCCCN4CCC4)ccc3[nH]2)[C@H]2CSSC[C@H]21	active
c1n[nH]cc1-c1nc2ccc3[nH]ncc3c2c2c1CC1(CCOCC1)CC2	inactive
N#CC1=C(c2cccs2)Nc2c(c(-c3ccccc3)nn2-c2ccccc2)C12C(=O)Nc1ccccc12 (stereo unspecified)	inactive
CN1CCN(c2ccc3c4c(cccc24)C(=O)N(c2cccc(-c4nn(-c5ccccc5)cc4-c4nc5ccccc5s4)c2)C3=O)CC1	inactive
Cn1cc(-c2cc(N)n3nc(-c4c[nH]c5ccc(Cl)cc45)cc3n2)c2cccnc21	active
CCCCCCCCc1cccc(CC(=O)Nc2ccc(C)cc2C(=O)O)c1	inactive
CCCCN1C(=O)/C(=C\C(=O)c2cc3ccccc3oc2=O)c2ccccc21	inactive
CCCn1c(NC(=O)c2cccc(C(N)=O)c2)nc2cc(CN3CCCCC3)ccc21	inactive
CCOc1ccc2[nH]c(=O)c(C(c3nnnn3CC3CCCO3)N3CCN(Cc4ccccc4)CC3)cc2c1 (stereo unspecified)	inactive
C=CC(=O)Nc1ccc(C(=O)/C=C/c2ccc(N(C)C)cc2)c(O)c1	active
COc1ccc(N=Nc2c(N)nn3c(-c4ccc(F)cc4)ccnc23)cc1	inactive
N#Cc1ccc(C(=O)NNC(=O)CSc2nc3sc4c(c3c(=O)n2-c2ccc(Cl)cc2)CCCC4)cc1	active
CCCn1c(NC(=O)c2cccc(C(N)=O)c2)nc2ccc(CN3CCCCC3)cc21	inactive
COC(=O)c1cc(C(=O)C(Br)Br)n2c1ccc1c3ccccc3ccc12	inactive
COc1cc(CNC(=O)C[C@H](C)CCC=C(C)C)ccc1OCc1cn(-c2ccccc2Cl)nn1	inactive

src = PubChem BioAssay (NCI)
